B1: library; numbered along this chain (parent)
chain: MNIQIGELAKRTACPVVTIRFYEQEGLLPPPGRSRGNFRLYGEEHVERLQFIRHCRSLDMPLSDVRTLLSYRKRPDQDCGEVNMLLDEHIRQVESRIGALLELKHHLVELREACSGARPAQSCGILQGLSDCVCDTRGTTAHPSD

- Variants of: B1
- ASSAY DETAILS: sfGFP reporter fluorescence (15 h) (µM FITC); higher = stronger transcriptional activation
- CONDITION CONTEXT: library round: Round 0; ligand: 30 µM Zn
Assignment: determine reported sfGFP reporter fluorescence for the given variants.
Numbers only.

Examples from the recorded data:
(Q) Query: sfGFP reporter fluorescence; subject: C55K
(A) 0.0607

(Q) What do we get for V82T ?
(A) 0.0583

(Q) Request: V108K
(A) 1.13

(Q) And the next one, L129V ?
(A) 0.0535

(Q) Param item: M60L P61N K104V
(A) 1.56

(Q) And then D64K K104V G128I , what is it?
(A) 4.36

(Q) Also, R33E please.
(A) 0.0715

(Q) Consider next the variant F21T in the same way.
(A) 0.0607

(Q) Similarly, E112F ?
(A) 0.24

(Q) Continue with C114H
(A) 0.0563

For each listed entry, give its sfGFP reporter fluorescence.
1. G36S
2. L68R
3. D131K
4. L62C
5. C134N
6. P15C

(A)
1: 2.69; 2: 0.0596; 3: 1.5; 4: 0.0995; 5: 1.39; 6: 0.568
